# Tgt: CD28 (human) (UniProt P10747)
# Assay Details: flow cytometry, transfected Expi293F cells
Measured parental ratio, listed per entry.
Reply with the value as a number alone.

CD80 R29D/Y31L/Q33H/K36G/M38I/T41A/M43R/M47T/L70Q/E81V/K89N/A91T/F92P/K93V/R94L/I118V/T120S/I127T/T130A ECD-Fc (Fc fusion) VIHVTKEVKEVATLSCGHNVSVEELAQTDILWHKEGKIVLAMRSGDTNIWPEYKNRTIFDITNNLSIVIQALRPSDEGTYVCVVLKYENDTPVLEHLAEVTLSVKADFPTPSISDFEVPSSNIRRITCSASGGFPEPHLSWLENGEELNAINTTVSQDPETELYAVSSKLDFNMTTNHSFMCLIKYGHLRVNQTFNWNTTKQEHFPDN ... 0.05
CD80 R29D/Y31L/Q33H/K36G/M38I/T41A/M43R/M47T/L70Q/D76G/A91G/S103L/I118V/T120S/I127T/T130A ECD-Fc (Fc fusion) VIHVTKEVKEVATLSCGHNVSVEELAQTDILWHKEGKIVLAMRSGDTNIWPEYKNRTIFDITNNLSIVIQALRPSGEGTYECVVLKYEKDGFKREHLAEVTLLVKADFPTPSISDFEVPSSNIRRITCSASGGFPEPHLSWLENGEELNAINTTVSQDPETELYAVSSKLDFNMTTNHSFMCLIKYGHLRVNQTFNWNTTKQEHFPDN ... 0.04
CD80 R29D/Y31L/Q33H/K36G/M38I/T41A/M43R/M47T/E81V/L85R/K89N/A91T/F92P/K93V/R94L/I118V/T120S/T130A/K169E/M174T ECD-Fc (Fc fusion) VIHVTKEVKEVATLSCGHNVSVEELAQTDILWHKEGKIVLAMRSGDTNIWPEYKNRTIFDITNNLSIVILALRPSDEGTYVCVVRKYENDTPVLEHLAEVTLSVKADFPTPSISDFEVPSSNIRRIICSASGGFPEPHLSWLENGEELNAINTTVSQDPETELYAVSSELDFNTTTNHSFMCLIKYGHLRVNQTFNWNTTKQEHFPDN ... 0.06

Exercise: Give the measured parental ratio of CD80 Y53C/L70Q/D90G/T130A/N149D/N152T/H188D ECD-Fc (Fc fusion) VIHVTKEVKEVATLSCGHNVSVEELAQTRIYWQKEKKMVLTMMSGDMNIWPECKNRTIFDITNNLSIVIQALRPSDEGTYECVVLKYEKGAFKREHLAEVTLSVKADFPTPSISDFEIPTSNIRRIICSASGGFPEPHLSWLENGEELDAITTTVSQDPETELYAVSSKLDFNMTTNHSFMCLIKYGDLRVNQTFNWNTTKQEHFPDN .
Key: 0.04

Exercise: Give the measured parental ratio of CD80 Y53C/L85R/K89N/A91T/F92P/K93V/R94L/I118V/T120S/I127T/T130A/K169E ECD-Fc (Fc fusion) VIHVTKEVKEVATLSCGHNVSVEELAQTRIYWQKEKKMVLTMMSGDMNIWPECKNRTIFDITNNLSIVILALRPSDEGTYECVVRKYENDTPVLEHLAEVTLSVKADFPTPSISDFEVPSSNIRRITCSASGGFPEPHLSWLENGEELNAINTTVSQDPETELYAVSSELDFNMTTNHSFMCLIKYGHLRVNQTFNWNTTKQEHFPDN .
Key: 0.03

Exercise: Give the measured parental ratio of CD80 H18L/R29D/Y31L/Q33H/K36G/M38I/T41A/M43R/M47T/E81V/L85R/K89N/A91T/F92P/K93V/R94L/F116S/T130A/H188D ECD-Fc (Fc fusion) VIHVTKEVKEVATLSCGLNVSVEELAQTDILWHKEGKIVLAMRSGDTNIWPEYKNRTIFDITNNLSIVILALRPSDEGTYVCVVRKYENDTPVLEHLAEVTLSVKADFPTPSISDSEIPTSNIRRIICSASGGFPEPHLSWLENGEELNAINTTVSQDPETELYAVSSKLDFNMTTNHSFMCLIKYGDLRVNQTFNWNTTKQEHFPDN .
Key: 0.03

Exercise: Give the measured parental ratio of CD80 C16S/H18L/R29D/Y31L/Q33H/K36G/M38I/T41A/M43R/M47T/E81V/L85R/K89N/A91T/F92P/K93V/R94L/T110A/I118V/H188D ECD-Fc (Fc fusion) VIHVTKEVKEVATLSSGLNVSVEELAQTDILWHKEGKIVLAMRSGDTNIWPEYKNRTIFDITNNLSIVILALRPSDEGTYVCVVRKYENDTPVLEHLAEVTLSVKADFPAPSISDFEVPTSNIRRIICSTSGGFPEPHLSWLENGEELNAINTTVSQDPETELYAVSSKLDFNMTTNHSFMCLIKYGDLRVNQTFNWNTTKQEHFPDN .
Key: 0.03

The reported measurements were obtained from patent US20220177587A1.
